Experimental Details: chemical genetic growth profiling, strain panel (AID 1159580);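 further: tested at 20 µM; growth read once vehicle control cultures reached saturation at 30 °C; 1 = growth at the plate median or of vehicle wells; lower values mean less growth of the strain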
Particulars: S. cerevisiae deletion strains, growth OD, locus YKL190W, strain CNB1
Among all 5,500 compounds or so, about 2,000 (36%) were called active. Roughly 18% stayed inconclusive and do not appear here. No stated cut-off is given here; in the data, active means normalized growth mostly below about 0.91 (no sharp cut-off); inconclusive means no clear call, values can overlap the other calls; inactive means mostly above about 0.92. This is one part of the list.
Result category, one only: active, inactive

For orientation, consider the following solved cases.
CC(C)=CCOc1c2occc2cc2ccc(=O)oc12 ... active
CC(C)=CCOc1cc2oc(=O)ccc2cc1O ... inactive
COc1cccc(CC(=O)NN)c1 ... inactive
CC(=O)N[C@@H](CC(=O)O)C(=O)O ... inactive
COc1cc(O)c(C)c(O)c1 ... inactive

Query: What classification did "Cn1c(=O)[nH]c(=O)c2[nH]cnc21" end up with in this test?
Response: inactive

Query: What classification did "Cn1c([N+](=O)[O-])cnc1COC(N)=O" end up with in this test?
Response: inactive

Query: What classification did "N/C(=N/OC(=O)C(Cl)Cl)c1cccc(Cl)c1Cl" end up with in this test?
Response: inactive

Query: What classification did "CC1(C)S[C@@H]2[C@H](NC(=O)COc3ccccc3)C(=O)N2[C@H]1C(=O)O" end up with in this test?
Response: inactive

Query: What classification did "CC(C)(C)c1cc(C(C)(C)C)n(-c2ccc([N+](=O)[O-])cc2)n1" end up with in this test?
Response: inactive

Query: What classification did "COc1cc(O)c(C(=O)c2ccccc2)c(OC)c1" end up with in this test?
Response: inactive

Query: What classification did "S=c1[nH]nc(-c2ccco2)n1-c1ccc2c(c1)OCCO2" end up with in this test?
Response: inactive

Query: What classification did "O=C(CSc1nnc(-c2ccco2)n1-c1ccc2c(c1)OCCO2)c1cccc(F)c1" end up with in this test?
Response: inactive

====

Experimental Details: chemical genetic growth profiling, strain panel (AID 1159580);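 further: tested at 20 µM; growth read once vehicle control cultures reached saturation at 30 °C; 1 = growth at the plate median or of vehicle wells; lower values mean less growth of the strain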
Particulars: S. cerevisiae deletion strains, growth OD, locus YOR001W, strain rrp6, active compounds read low
The whole screen tested about 5,500 compounds, of which about 2,000 (36%) were called active. About 18% were inconclusive and are not listed. The list shows a part of the results.
Quantity Measured: normalized growth
API note: the answer field is a bare number with no unit suffix.

Solved entries:
CC1(C)C=Cc2c(cc3occ(-c4ccc5c(c4)OCO5)c(=O)c3c2O)O1 ... 0.93
CN1CCN(CCCN2c3ccccc3Sc3ccc(Cl)cc32)CC1 ... 0.864
CC(=O)OCC(=O)[C@@]1(O)CCC2C3CCC4=CC(=O)CC[C@]4(C)[C@@]3(F)[C@@H](O)C[C@@]21C (stereo partly drawn) ... 1
CC1(C)S[C@@H]2[C@H](NC(=O)COc3ccccc3)C(=O)N2[C@H]1C(=O)O ... 0.983
C[C@]12CCC3C(CC[C@H]4C[C@@H](O)CC[C@]34C)C1CCC2=O (stereo partly drawn) ... 0.847
CN1Cc2c(N)cccc2C(c2ccccc2)C1 (stereo not drawn) ... 1.02

Query: Would you mind telling me what normalized growth value was observed for "COc1c2occc2cc2ccc(=O)oc12" ?
Response: 0.958

Query: Would you mind telling me what normalized growth value was observed for C[N+]1(C)C2CC[C@H]1CC(OC(=O)C(O)c1ccccc1)C2 (stereo partly drawn) ?
Response: 1.03

Query: Would you mind telling me what normalized growth value was observed for "O=C(O)c1cc2cc(Cl)ccc2[nH]1" ?
Response: 1.01

Query: Would you mind telling me what normalized growth value was observed for "COc1c2c(cc3occ(-c4ccc5c(c4)OCO5)c(=O)c13)OC(C)(C)C=C2" ?
Response: 0.957

Query: Would you mind telling me what normalized growth value was observed for "CC(C)=CCOc1cc2oc(=O)ccc2cc1O" ?
Response: 0.906

The measured values listed here are drawn from PubChem BioAssay AID1159580.
